Reported growth inhibition values for the following compounds.
test: NCI Yeast Anticancer Drug Screen. Data for the rad50 strain (AID 155);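 also: 0% = growth of vehicle-only cultures of the same strain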; conditions: S. cerevisiae rad50 strain growth inhibition; at 50.0 µM; hits give high values
The panel holds about 79,000 compounds, 15% with a hit somewhere; the sample as a whole holds those more often.
Report the value in % with no unit label.

Solved entries (count: 5):
Compound | Reading
CC(C)C(O)(C(=O)OCC1=CC[N+]2(C)CCC(O)C12)C(C)O (centres undefined) | 27.6
Cc1cccc(NC(=S)Nc2ccc(-c3ccc(NC(=S)Nc4cccc(C)c4)cc3)cc2)c1 | -0.2
CSc1nc(=S)c2[nH]c(Cl)nc2[nH]1 | -1.8
Cc1cccc(/C=C(\C#N)C(=O)c2ccccc2)c1 | -10.6
CC(C)NC(=O)CCSCCC(=O)NC(C)C | 3.6

Value of measured growth inhibition for the entry C=CCNC(=S)Nc1ccc(OC(=O)NC2CCCCC2)cc1 : 6.4

Value of measured growth inhibition for the entry C=CC1(c2ccc(Cl)c(Cl)c2)OCCO1 : -11.3

Value of measured growth inhibition for the entry COc1ccccc1NC(=O)C(CC(C(=O)Nc1ccccc1OC)/C(C)=N/Nc1ccc([N+](=O)[O-])cc1[N+](=O)[O-])/C(C)=N/Nc1ccc([N+](=O)[O-])cc1[N+](=O)[O-] (centres undefined) : 14.8

Value of measured growth inhibition for the entry COc1cc2c(cc1OC)C(c1ccccc1)OCC2 (centres undefined) : -8.25
